- Test system: JNK2
- Construct: gene MAPK9
- reported conditions: concentration: 1 μM, replicates: in singlicate; n = 1;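 further: KINOMEscan kinase panel screen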
Lab note: cut-off is 20%. Strictly less in %Inh is class 1. Exactly 20% or more is class 0.

Consider the worked cases shown below.
- molecule: "CC(=O)c1c(C)c2cnc(Nc3ccn(C)n3)nc2n(C2CCCC2)c1=O"
  answer label: "class 1"
- molecule: "COc1cc2ncnc(Nc3cccc(Br)c3)c2cc1OC.Cl [GI230329]"
  answer label: "class 0"

Incoming: Determine if COc1cccc(CNC(=O)NC2CCN(c3ccnc(Nc4ccc(F)cc4)n3)C2)c1 (stereo not drawn) [GSK1379723] shows %Inh strictly lower than 20%.
Outgoing: class 1

Incoming: Determine if FC(F)(F)c1ccccc1-c1cc(-c2c[nH]nc2-c2ccccn2)ccn1 [GW679396] shows %Inh strictly lower than 20%.
Outgoing: class 0

Incoming: Determine if CC(=O)c1cccc(NC(=O)NC2CCN(c3ccnc(Nc4ccc(F)cc4)n3)C2)c1 (stereo not drawn) [GSK1379710] shows %Inh strictly lower than 20%.
Outgoing: class 1

Incoming: Determine if "COc1ccc(-c2coc3ccc(-c4nnc(C)o4)cc23)cc1" shows %Inh strictly lower than 20%.
Outgoing: class 1

* * *

- Test system: FLT3-autoinhibited
- reported conditions: concentration: 1 μM, replicates: in singlicate; n = 1
Lab note: cut-off is 5%. Strictly less in %Inh is Met. Exactly 5% or more is Not met.

- compound: "COc1cccc(C2=C(Nc3cc(Cl)c(O)c(Cl)c3)C(=O)NC2=O)c1 [SB-390767]"
  answer label: "Met"
- compound: "COc1ccc(CSc2nnc(-c3ccc4ncsc4c3)o2)cc1C(F)(F)F"
  answer label: "Met"
- compound: "COc1ccc(CSc2nnc(-c3ccc4nccn4c3)o2)cc1C(F)(F)F"
  answer label: "Not met"
- compound: "O=C1NC(=O)C(c2ccc(Cl)cc2)=C1Nc1ccc(O)cc1 [SB-340867]"
  answer label: "Met"
- compound: "O=C(Nc1n[nH]c2cc(-c3ccsc3)ccc12)C1CC1 [SB-732932]"
  answer label: "Not met"
- compound: "CNC(=O)c1ccc(C)c(-n2c(C)cc(OCc3ccc(F)cc3F)c(Br)c2=O)c1"
  answer label: "Met"
- compound: "Fc1ccc(-c2nc[nH]c2-c2ccncc2)cc1 [SB-217360]"
  answer label: "Met"
- compound: "NS(=O)(=O)c1cccc(N/C=C2\\C(=O)Nc3ccc(S(=O)(=O)Cc4c(Cl)cccc4Cl)cc32)c1 [GSK398099]"
  answer label: "Met"

Incoming: Determine if Nc1ncnc2occ(-c3ccc4c(c3)CCN4C(=O)Cc3cc(F)ccc3F)c12 [GSK2645446] shows %Inh strictly lower than 5%.
Outgoing: Met

Incoming: Determine if Cc1c(Cn2c3ccccc3n3c(=O)cc(N4CCOCC4)nc23)cccc1C(F)(F)F [GSK2306394] shows %Inh strictly lower than 5%.
Outgoing: Not met

Incoming: Determine if CC(=O)c1cccc(NC(=O)NC2CCN(c3ccnc(Nc4ccc(F)cc4)n3)C2)c1 (stereo not drawn) [GSK1379710] shows %Inh strictly lower than 5%.
Outgoing: Not met

* * *

- Test system: DRAK2
- Construct: gene STK17B
- reported conditions: concentration: 1 μM, replicates: in singlicate; n = 1
What %Inh was measured for each of the following?
Express your answer as a number followed by its unit.

- structure smiles string: "CCn1c(-c2ccccc2)nc2cnccc21"
  tested target: "DRAK2"
  assay result: "12%"
- structure smiles string: "O=C1NC(=O)C(c2ccc(Cl)cc2)=C1Nc1cccc(Cl)c1"
  tested target: "DRAK2"
  assay result: "0%"
- structure smiles string: "CNc1cc(-c2ccc3c(N)n[nH]c3c2)nc(N)n1"
  tested target: "DRAK2"
  assay result: "77%"
- structure smiles string: "CCCCc1nn2ncccc2c1-c1ccnc(NC2CC2)n1"
  tested target: "DRAK2"
  assay result: "0%"

Let's switch to this molecule now.
Incoming: // query %Inh value for entry "Cc1nccc(-c2c(-c3ccc(F)cc3)ncn2CCCN2CCOCC2)n1.Cl"
Outgoing: 22%

Cited source: paper PMC5540273
